Experimental protocol: JHH-DIPG-1 glioma cell viability, MIPE5.0 library, CellTiter-Glo luminescence, qHTS (AID 1347067);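 further: cells exposed to compound for 48 hours before readout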
Stated conditions: JHH-DIPG-1 glioma viability, CellTiter-Glo ATP luminescence
Inconclusive results are not listed. Calls of active or inactive are those of the source. Cut-off not given; nearly all actives show AC50 up to about 26 µM.
Form entry, call: pick from active, inactive

Compound	Class
CC(NCCc1ccc(O)cc1)C(O)c1ccc(O)cc1 (stereo unspecified)	inactive
O=C1C(Cl)=C(NCCN2CCOCC2)C(=O)c2ncccc21	active
C[C@]12CCC3c4ccc(O)cc4CCC3C1CCC2=O (stereo partly specified)	inactive
CCOC(=O)C(C)Oc1cccc2c(=O)n(CC(=O)Nc3ccc4c(c3)OCCO4)ccc12 (stereo unspecified)	inactive
CCOC(=O)C1=C(C)NC(=S)NC1c1cccc(O)c1 (stereo unspecified)	inactive

[Q] Name the outcome recorded for CC[C@]1(O)CC2CN(CCc3c([nH]c4ccccc34)[C@@](C(=O)OC)(c3cc4c(cc3OC)N(C)[C@H]3[C@@](O)(C(=O)OC)[C@H](OC(C)=O)[C@]5(CC)C=CCN6CC[C@]43[C@@H]65)C2)C1 (stereo partly specified) in the assay.
[A] active

[Q] Each compound tested received a call. Report the one for CN1C(C(=O)Nc2ccccn2)=C(O)c2sc(Cl)cc2S1(=O)=O .
[A] inactive

###

Recorded growth inhibition values for a group of compounds are listed next.
Experimental protocol: inhibition of 3D7 malaria parasite growth – strain 3D7 (AID 2306);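 further: 0% = DMSO wells and 100% = chloroquine plus artemisinin control wells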
Stated conditions: P. falciparum 3D7 erythrocytic growth, LDH absorbance, 72 h; at 2 µM; stronger effect = higher value
Write down the numeric answer in % and omit the unit.

In [3]: df
Out[3]:
                                   compound  display_unit  assay_value
0  Cc1cc(=O)c(-c2ccc(S(=O)(=O)c3ccc(Cl)cc3)cc2)c(C)[nH]1             %           92
1  COc1cc2c(cc1OC)C(C(=O)Nc1cc(OC)c(OC)c(OC)c1)C(c1ccc(SC)cc1)N(C)C2=O (stereo not drawn)             %           97

[Q] Return value of growth inhibition for input CCCCN(CCCC)CCCN(CCCN(CCCC)CCCC)c1cc(C)nc(Nc2ccc(Br)cc2)n1 , no commentary.
[A] 99

###

System: F380Y
Experimental protocol: modulators of BK channel variants, profiling panel, selectivity assay, cell-based, U2OS BacMam, thallium flux, beta subunits (AID 1259406);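 further: initial slope of Thallos dye fluorescence rise after thallium is added; log ratio against the mean of 0.3% DMSO vehicle wells on the same plate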
Stated conditions: at 30 µM
The source made the active and inactive calls.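 The calls were made as follows: active = thallium flux through the channel raised or lowered by more than 3 SD from vehicle-only wells, actives on both sides; inactive = the rest.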
Respond using exactly one of the listed classes: y = active, n = inactive

Solved entries:
                                   compound  class
0  COc1cc(N)c(Cl)cc1C(=O)N[C@@H]1CCN(CCCOc2ccc(F)cc2)C[C@@H]1OC      n
1  Cn1c(C(=O)O)ccc1S(=O)(=O)N(Cc1ccccc1)Cc1ccccc1      n
2  CSC(NCc1cccnc1)=C(C#N)S(=O)(=O)c1ccc(Cl)cc1      n
3             O=C(O)Cc1ccc([N+](=O)[O-])cc1      n
4   O=c1[nH]c2ccc(Cl)cc2c2oc(-c3ccccc3)nc12      n
5               CCc1[nH]c(=S)[nH]c(=O)c1C#N      n
6  FC(F)(F)c1cc(-c2noc(-c3ccc4c(c3)CCO4)n2)cc(C(F)(F)F)c1      y
7  CCOC(=O)C1CCC(C(=O)OCC)N1C(=O)Nc1ccc(Cl)cc1 (stereo not given)      n
8  CSc1nc(C=Nc2cccc(Cl)c2)c(O)n1Cc1cccc(Cl)c1      n

Please turn your attention to the following entry.
[Q] Just curious, what result did Cc1cc(CNCC(O)C(F)(F)F)no1 (stereo not given) get here?
[A] n

meta.source: PubChem BioAssay
